This collection of values is drawn from paper PMC10876507.

System: PC3 PD-L1 overexpressing and PD-L1-mock tumors
Protocol Notes: PET imaging in NMRI-nude mice bearing PC3 PD-L1 and PC3 mock tumors
Format: in vivo
Protocol Conditions: tracer only, 1-2 hour p.i., i.v., mice
Source text: Male athymic NMRI-nude mice (Rj:NMRI-Foxn1nu, Janvier Labs, Le Genest-Saint-Isle, France) aged between 8 to 16 weeks were employed for the study. […] The growth of tumors was systematically monitored three times per week through caliper measurements, and animals with tumor sizes above 7 mm were included in the subsequent experiments. […] Three-dimensional volumes of interest were defined using fixed thresholding at 35–40% of the maximal measured intensity. […]
Measured Property: SUVmax liver
Number only, no unit.

Incoming: Consider the compound shown here: Cc1c(COc2cc(OCc3cncc(S(C)(=O)=O)c3)c(CN[C@@H](CS(=O)(=O)O)C(=O)NCCS(=O)(=O)O)cc2Br)cccc1-c1cccc(OCc2cn(CCCN3CCN(C(=O)[C@H](CS(=O)(=O)O)NC(=O)CN4CCCN5CCN(CCCN(CC(=O)[O-])CC5)CC4)CC3)nn2)c1C.[64Cu+2] [[^64Cu]Cu-15] What is its recorded SUVmax liver?
Outgoing: 3.80

Incoming: What value of measured SUVmax liver is listed for Cc1c(COc2cc(OCc3cncc(S(C)(=O)=O)c3)c(CN[C@@H](CS(=O)(=O)O)C(=O)NCCS(=O)(=O)O)cc2Br)cccc1-c1cccc(OCc2cn(CCCN3CCN(C(=O)[C@H](CS(=O)(=O)O)NC(=O)CC[C@H](C(=O)[O-])N4CCN(CC(=O)[O-])CCN(CC(=O)[O-])CC4)CC3)nn2)c1C.[64Cu+2] [[^64Cu]Cu-14] ?
Outgoing: 3.41

Incoming: Tell me the measured SUVmax liver of Cc1c(COc2cc(OCc3cncc(S(C)(=O)=O)c3)c(CN[C@@H](CS(=O)(=O)O)C(=O)NCCS(=O)(=O)O)cc2Br)cccc1-c1cccc(OCc2cn(CCCN3CCN(C(=O)[C@H](CS(=O)(=O)O)NC(=O)CCCC(=O)NC45CNCCNCC(N)(CNCCNC4)CNCCNC5)CC3)nn2)c1C.[64Cu+2] [[^64Cu]Cu-16] , please.
Outgoing: 4.32

Incoming: Form field: reported SUVmax liver of Cc1c(COc2cc(OCc3cncc(S(C)(=O)=O)c3)c(CN[C@@H](CS(=O)(=O)O)C(=O)NCCS(=O)(=O)O)cc2Br)cccc1-c1cccc(OCc2cn(CCCN3CCN(C(=O)[C@H](CS(=O)(=O)O)NC(=O)CCCC(=O)NC45CNCCNCC(NC(=O)CCCC(=O)N[C@@H](CS(=O)(=O)O)C(=O)N6CCN(CCCn7cc(COc8cccc(-c9cccc(COc%10cc(OCc%11cncc(S(C)(=O)=O)c%11)c(CN[C@@H](CS(=O)(=O)O)C(=O)NCCS(=O)(=O)O)cc%10Br)c9C)c8C)nn7)CC6)(CNCCNC4)CNCCNC5)CC3)nn2)c1C.[64Cu+2] [[^64Cu]Cu-17]
Outgoing: 17.0

====

I'd appreciate it if you could supply SUVmax PC3 PD-L1 tumor values for the items below.
System: PC3 PD-L1 overexpressing and PD-L1-mock tumors
Protocol Notes: PET imaging in NMRI-nude mice bearing PC3 PD-L1 and PC3 mock tumors
Type: in vivo
Protocol Conditions: tracer only, 24-25 hour p.i., i.v., mice
API note: the answer field is a bare number with no unit suffix.

Incoming: Return SUVmax PC3 PD-L1 tumor measured with PC3 PD-L1 overexpressing and PD-L1-mock tumors given this compound: Cc1c(COc2cc(OCc3cncc(S(C)(=O)=O)c3)c(CN[C@@H](CS(=O)(=O)O)C(=O)NCCS(=O)(=O)O)cc2Br)cccc1-c1cccc(OCc2cn(CCCN3CCN(C(=O)[C@H](CS(=O)(=O)O)NC(=O)CCCC(=O)NC45CNCCNCC(NC(=O)CCCC(=O)N[C@@H](CS(=O)(=O)O)C(=O)N6CCN(CCCn7cc(COc8cccc(-c9cccc(COc%10cc(OCc%11cncc(S(C)(=O)=O)c%11)c(CN[C@@H](CS(=O)(=O)O)C(=O)NCCS(=O)(=O)O)cc%10Br)c9C)c8C)nn7)CC6)(CNCCNC4)CNCCNC5)CC3)nn2)c1C.[64Cu+2] [[^64Cu]Cu-17]
Outgoing: 2.47

Incoming: Request body: readout SUVmax PC3 PD-L1 tumor, system PC3 PD-L1 overexpressing and PD-L1-mock tumors, query Cc1c(COc2cc(OCc3cncc(S(C)(=O)=O)c3)c(CN[C@@H](CS(=O)(=O)O)C(=O)NCCS(=O)(=O)O)cc2Br)cccc1-c1cccc(OCc2cn(CCCN3CCN(C(=O)[C@H](CS(=O)(=O)O)NC(=O)CCCC(=O)NC45CNCCNCC(N)(CNCCNC4)CNCCNC5)CC3)nn2)c1C.[64Cu+2] [[^64Cu]Cu-16] . Return the value.
Outgoing: 1.47

Incoming: Hi! What's the reported SUVmax PC3 PD-L1 tumor for Cc1c(COc2cc(OCc3cncc(S(C)(=O)=O)c3)c(CN[C@@H](CS(=O)(=O)O)C(=O)NCCS(=O)(=O)O)cc2Br)cccc1-c1cccc(OCc2cn(CCCN3CCN(C(=O)[C@H](CS(=O)(=O)O)NC(=O)CN4CCCN5CCN(CCCN(CC(=O)[O-])CC5)CC4)CC3)nn2)c1C.[64Cu+2] [[^64Cu]Cu-15] on PC3 PD-L1 overexpressing and PD-L1-mock tumors?
Outgoing: 0.90

Incoming: What reported SUVmax PC3 PD-L1 tumor corresponds to Cc1c(COc2cc(OCc3cncc(S(C)(=O)=O)c3)c(CN[C@@H](CS(=O)(=O)O)C(=O)NCCS(=O)(=O)O)cc2Br)cccc1-c1cccc(OCc2cn(CCCN3CCN(C(=O)[C@H](CS(=O)(=O)O)NC(=O)CC[C@H](C(=O)[O-])N4CCN(CC(=O)[O-])CCN(CC(=O)[O-])CC4)CC3)nn2)c1C.[64Cu+2] [[^64Cu]Cu-14] on PC3 PD-L1 overexpressing and PD-L1-mock tumors?
Outgoing: 1.52

====

System: PC3 PD-L1 overexpressing and PD-L1-mock tumors
Protocol Notes: PET imaging in NMRI-nude mice bearing PC3 PD-L1 and PC3 mock tumors
Format: in vivo
Protocol Conditions: tracer only, 1-2 hour p.i., i.v., mice
Assignment: determine reported SUVmax kidney for the given molecules.
I only need the number, thanks.

Incoming: Could you share which SUVmax kidney value was measured for Cc1c(COc2cc(OCc3cncc(S(C)(=O)=O)c3)c(CN[C@@H](CS(=O)(=O)O)C(=O)NCCS(=O)(=O)O)cc2Br)cccc1-c1cccc(OCc2cn(CCCN3CCN(C(=O)[C@H](CS(=O)(=O)O)NC(=O)CC[C@H](C(=O)[O-])N4CCN(CC(=O)[O-])CCN(CC(=O)[O-])CC4)CC3)nn2)c1C.[64Cu+2] [[^64Cu]Cu-14] ?
Outgoing: 22.8

Incoming: Given the molecule Cc1c(COc2cc(OCc3cncc(S(C)(=O)=O)c3)c(CN[C@@H](CS(=O)(=O)O)C(=O)NCCS(=O)(=O)O)cc2Br)cccc1-c1cccc(OCc2cn(CCCN3CCN(C(=O)[C@H](CS(=O)(=O)O)NC(=O)CCCC(=O)NC45CNCCNCC(N)(CNCCNC4)CNCCNC5)CC3)nn2)c1C.[64Cu+2] [[^64Cu]Cu-16] , what is its reported SUVmax kidney?
Outgoing: 16.2

Incoming: Bench note: what SUVmax kidney did Cc1c(COc2cc(OCc3cncc(S(C)(=O)=O)c3)c(CN[C@@H](CS(=O)(=O)O)C(=O)NCCS(=O)(=O)O)cc2Br)cccc1-c1cccc(OCc2cn(CCCN3CCN(C(=O)[C@H](CS(=O)(=O)O)NC(=O)CN4CCCN5CCN(CCCN(CC(=O)[O-])CC5)CC4)CC3)nn2)c1C.[64Cu+2] [[^64Cu]Cu-15] show?
Outgoing: 3.26

Incoming: Any idea what its SUVmax kidney is? The molecule is Cc1c(COc2cc(OCc3cncc(S(C)(=O)=O)c3)c(CN[C@@H](CS(=O)(=O)O)C(=O)NCCS(=O)(=O)O)cc2Br)cccc1-c1cccc(OCc2cn(CCCN3CCN(C(=O)[C@H](CS(=O)(=O)O)NC(=O)CCCC(=O)NC45CNCCNCC(NC(=O)CCCC(=O)N[C@@H](CS(=O)(=O)O)C(=O)N6CCN(CCCn7cc(COc8cccc(-c9cccc(COc%10cc(OCc%11cncc(S(C)(=O)=O)c%11)c(CN[C@@H](CS(=O)(=O)O)C(=O)NCCS(=O)(=O)O)cc%10Br)c9C)c8C)nn7)CC6)(CNCCNC4)CNCCNC5)CC3)nn2)c1C.[64Cu+2] [[^64Cu]Cu-17]
Outgoing: 1.32
